subject-of-test: UniProtKB Q96P20
run-description: Human Whole Blood (hWB) NLRP3 Assay (LPS/ATP, IL-1β)
Assay type: cell-based
recorded-conditions: hWB IC50, human whole blood, LPS/ATP, IL-1β
pIC50: −log10 of the molar value.
Could you please report measured pIC50 for the items listed next?

Prompt: Output measured pIC50 for this item: O=C(N[C@@H]1CCC[C@@H]2CC[C@H]1N2c1nnn[nH]1)C1(c2ccc(C(F)(F)F)cc2O)CC1 [88A*]
Completion: > 6.00

Prompt: Output measured pIC50 for this item: C[C@@H]1C[C@@H](NC(=O)C2(c3ccc(OC(F)F)cc3)CC2)[C@H]2CC[C@@H]1N2c1nnn[nH]1 (single isomer, unassigned) [35A*]
Completion: > 6.00

Prompt: Output measured pIC50 for this item: C[C@@H]1C[C@@H](NC(=O)C2(c3ccc(C4CC4(F)F)cc3)CC2)[C@H]2CC[C@@H]1N2c1nnn[nH]1 (single isomer, unassigned) [37A*]
Completion: 5.70 to 6.00

---

subject-of-test: human NLRP3 (Homo sapiens (Human))
Sequence (Q96P20 whole entry): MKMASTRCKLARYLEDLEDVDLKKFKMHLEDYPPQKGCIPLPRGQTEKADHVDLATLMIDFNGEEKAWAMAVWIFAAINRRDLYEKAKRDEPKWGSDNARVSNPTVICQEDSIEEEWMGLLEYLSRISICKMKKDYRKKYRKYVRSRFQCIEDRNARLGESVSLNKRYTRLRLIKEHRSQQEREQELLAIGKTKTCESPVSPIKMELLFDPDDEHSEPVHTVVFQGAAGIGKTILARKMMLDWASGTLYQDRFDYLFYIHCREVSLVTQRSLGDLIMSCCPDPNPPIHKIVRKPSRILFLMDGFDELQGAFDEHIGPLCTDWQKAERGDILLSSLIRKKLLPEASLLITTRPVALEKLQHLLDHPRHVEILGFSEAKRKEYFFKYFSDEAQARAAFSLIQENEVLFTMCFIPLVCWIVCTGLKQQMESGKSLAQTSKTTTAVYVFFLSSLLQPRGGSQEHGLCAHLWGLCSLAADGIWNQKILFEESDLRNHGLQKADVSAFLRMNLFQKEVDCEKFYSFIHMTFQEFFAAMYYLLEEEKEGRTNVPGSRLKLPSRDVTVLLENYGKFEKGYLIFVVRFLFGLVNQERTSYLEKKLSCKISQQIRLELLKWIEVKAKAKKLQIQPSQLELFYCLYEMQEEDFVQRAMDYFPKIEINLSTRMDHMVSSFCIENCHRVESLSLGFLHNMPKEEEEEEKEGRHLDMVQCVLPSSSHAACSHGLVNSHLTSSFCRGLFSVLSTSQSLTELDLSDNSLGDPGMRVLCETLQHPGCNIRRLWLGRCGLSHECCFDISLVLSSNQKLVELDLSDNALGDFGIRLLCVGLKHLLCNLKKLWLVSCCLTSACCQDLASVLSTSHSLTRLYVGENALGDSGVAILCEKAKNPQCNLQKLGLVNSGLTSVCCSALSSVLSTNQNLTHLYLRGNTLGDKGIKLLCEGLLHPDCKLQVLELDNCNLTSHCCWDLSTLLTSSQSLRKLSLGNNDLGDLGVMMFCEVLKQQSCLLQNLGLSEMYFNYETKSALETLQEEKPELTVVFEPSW
run-description: Scintillation Proximity (SPA) NLRP3 Assay: displacement of 3H-MCC950
Format: binding
recorded-conditions: read-out: SPA IC50
reported-property: pIC50
Friendly reminder that pIC50 comes from taking -log10 of the concentration in mol/L.

Prompt: Output measured pIC50 for this item: O=C(N[C@@H]1CCCN(c2nnn[nH]2)C1)C1(c2ccc(Cl)cc2)CC1 [Compound 10A]
Completion: 5.02

Prompt: Output measured pIC50 for this item: CN(C(=O)C1(c2ccc(Cl)cc2)CC1)c1cccc(-c2nnn[nH]2)c1 [Comparative Example B2, reference compound]
Completion: 3.70

Prompt: Output measured pIC50 for this item: C[C@H]1C[C@@H](NC(=O)C2(c3ccc(Cl)cc3)CC2)CN(c2nnn[nH]2)C1 [Compound 46A]
Completion: 6.07

Prompt: Output measured pIC50 for this item: C[C@H]1C[C@@H](NC(=O)C2(c3ccc(Cl)cc3O)CC2)CN(c2nnn[nH]2)C1 [Compound 47A]
Completion: 7.32

Prompt: Output measured pIC50 for this item: O=C(N[C@@H]1CCN(c2nnn[nH]2)C1)C1(c2ccc(Cl)cc2)CC1 (single isomer, unassigned) [Comparative Example A*, reference compound]
Completion: 3.38

Prompt: Output measured pIC50 for this item: O=C(N[C@@H]1CCCN(c2nnn[nH]2)C1)C1(c2ccc(Cl)cc2O)CC1 [Compound 15A]
Completion: 5.74

Prompt: Output measured pIC50 for this item: O=C(N[C@@H]1CCCCN(c2nnn[nH]2)C1)C1(c2ccc(Cl)cc2O)CC1 [Compound 52A]
Completion: 7.10

Prompt: Output measured pIC50 for this item: CC1(C)C[C@@H](NC(=O)C2(c3ccc(Cl)cc3O)CC2)CN(c2nnn[nH]2)C1 (single isomer, unassigned) [42A*]
Completion: 7.33

Prompt: Output measured pIC50 for this item: O=C(N[C@@H]1CCCCN(c2nnn[nH]2)C1)C1(c2ccc(Cl)cc2)CC1 [Compound 51A]
Completion: 5.66

Prompt: Output measured pIC50 for this item: C[C@@H]1C[C@@H](NC(=O)C2(c3ccc(Cl)cc3)CC2)[C@H]2CC[C@@H]1N2c1nnn[nH]1 [80A*]
Completion: 6.89

Prompt: Output measured pIC50 for this item: O=C(Nc1cccc(-c2ccccc2)c1)C1(c2ccc(Cl)cc2)CC1 [Comparative Example D, reference compound]
Completion: 3.49

Prompt: Output measured pIC50 for this item: C[C@H]1C[C@@H](NC(=O)C2(c3ccc(OC(F)(F)F)cc3O)CC2)CN(c2nnn[nH]2)C1 [Compound 17A]
Completion: 7.01

Prompt: Output measured pIC50 for this item: O=C(Nc1cccc(-c2nnn[nH]2)c1)C1(c2ccc(Cl)cc2)CC1 [Comparative Example B1, reference compound]
Completion: 5.10

Prompt: Output measured pIC50 for this item: C[C@H]1C[C@@H](NC(=O)C2(c3ccc(C(F)(F)F)cc3O)CC2)CN(c2nnn[nH]2)C1 [Compound 16A]
Completion: 7.39

Entry source: patent US20260007684A1
